Assay: N-methylimidazole challenge
Type: physicochemical
Conditions: 1 mM complex, 5 mM N-methylimidazole, pH 7.4 PBS, 37 °C, 24 h
Could you mark each record condition met if its % Disubstituted falls strictly under 60%, and condition not met if it equals or exceeds it?

Molecule: CC(C=NN=C(N)[S-])=NN=C(N)[S-].N.N.O=[N+]([O-])[O-].[Co+3] [[Co(PTS)(NH3)2]^+]
Classification: condition met
--
Molecule: CC(=NN=C(N)[S-])C(C)=NN=C(N)[S-].NCc1ccccc1.NCc1ccccc1.O=[N+]([O-])[O-].[Co+3] [[Co(ATS)(BnA)2]^+]
Classification: condition not met
--
Molecule: CC(=NN=C(N)[S-])C(C)=NN=C(N)[S-].O=[N+]([O-])[O-].[Co+3].c1c[nH]cn1.c1c[nH]cn1 [[Co(ATS)(Im)2]^+]
Classification: condition met
--
Molecule: CC(=NN=C(N)[S-])C(C)=NN=C(N)[S-].N.N.O=[N+]([O-])[O-].[Co+3] [[Co(ATS)(NH3)2]^+]
Classification: condition met
--
Molecule: NC([S-])=NN=CC=NN=C(N)[S-].O=[N+]([O-])[O-].[Co+3].c1c[nH]cn1.c1c[nH]cn1 [[Co(GTS)(Im)2]^+]
Classification: condition met
--
Molecule: CC(C=NN=C(N)[S-])=NN=C(N)[S-].O=[N+]([O-])[O-].[Co+3].c1c[nH]cn1.c1c[nH]cn1 [[Co(PTS)(Im)2]^+]
Classification: condition met
--
Molecule: CC(C=NN=C(N)[S-])=NN=C(N)[S-].NCc1ccccc1.NCc1ccccc1.O=[N+]([O-])[O-].[Co+3] [[Co(PTS)(BnA)2]^+]
Classification: condition not met

====

Experiment: N-methylimidazole challenge
Assay type: physicochemical
Details: 1 mM complex, 5 mM N-methylimidazole, pH 7.4 PBS, 37 °C, 24 h

Compound: CC(=NN=C(N)[S-])C(C)=NN=C(N)[S-].NCc1ccccc1.NCc1ccccc1.O=[N+]([O-])[O-].[Co+3] [[Co(ATS)(BnA)2]^+]
Reading Unit: %
% Monosubstituted: 7

Compound: CC(C=NN=C(N)[S-])=NN=C(N)[S-].N.N.O=[N+]([O-])[O-].[Co+3] [[Co(PTS)(NH3)2]^+]
Reading Unit: %
% Monosubstituted: 22

Compound: CC(C=NN=C(N)[S-])=NN=C(N)[S-].NCc1ccccc1.NCc1ccccc1.O=[N+]([O-])[O-].[Co+3] [[Co(PTS)(BnA)2]^+]
Reading Unit: %
% Monosubstituted: 6

Compound: CC(C=NN=C(N)[S-])=NN=C(N)[S-].O=[N+]([O-])[O-].[Co+3].c1c[nH]cn1.c1c[nH]cn1 [[Co(PTS)(Im)2]^+]
Reading Unit: %
% Monosubstituted: 39

Compound: CC(=NN=C(N)[S-])C(C)=NN=C(N)[S-].O=[N+]([O-])[O-].[Co+3].c1c[nH]cn1.c1c[nH]cn1 [[Co(ATS)(Im)2]^+]
Reading Unit: %
% Monosubstituted: 43

Compound: CC(=NN=C(N)[S-])C(C)=NN=C(N)[S-].N.N.O=[N+]([O-])[O-].[Co+3] [[Co(ATS)(NH3)2]^+]
Reading Unit: %
% Monosubstituted: 27
